Reference for the values: patent US20220177587A1

- system.name: human CTLA-4 (human) (UniProt P16410)
- Sequence (P16410 36-223): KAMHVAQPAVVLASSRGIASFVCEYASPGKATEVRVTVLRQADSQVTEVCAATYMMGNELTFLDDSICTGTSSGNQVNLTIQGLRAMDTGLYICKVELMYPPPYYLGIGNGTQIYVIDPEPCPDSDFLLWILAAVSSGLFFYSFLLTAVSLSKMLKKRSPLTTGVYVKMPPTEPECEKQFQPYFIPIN
- assay.protocol: flow cytometry, CHO/huCTLA-4 cells; vs WT CD80 ECD-Fc (Abcam)
experimental.readout: Fold change to WT CD80 (fold)

variant CD80 IgV-Fc E35D/M47V/V68M/L85Q/K89N (Fc fusion) VIHVTKEVKEVATLSCGHNVSVEELAQTRIYWQKDKKMVLTMMSGDVNIWPEYKNRTIFDITNNLSIMILALRPSDEGTYECVVQKYENDAFKREHLAEVTLSVKAD :: 0.7
variant CD80 IgV-Fc M47L (Fc fusion) VIHVTKEVKEVATLSCGHNVSVEELAQTRIYWQKEKKMVLTMMSGDLNIWPEYKNRTIFDITNNLSIVILALRPSDEGTYECVVLKYEKDAFKREHLAEVTLSVKAD :: 0.8
variant CD80 IgV-Fc E35D/M47V (Fc fusion) VIHVTKEVKEVATLSCGHNVSVEELAQTRIYWQKDKKMVLTMMSGDVNIWPEYKNRTIFDITNNLSIVILALRPSDEGTYECVVLKYEKDAFKREHLAEVTLSVKAD :: 1.1
variant CD80 IgV-Fc E35D/D46V/M47L/V68M/L85Q (Fc fusion) VIHVTKEVKEVATLSCGHNVSVEELAQTRIYWQKDKKMVLTMMSGVLNIWPEYKNRTIFDITNNLSIMILALRPSDEGTYECVVQKYEKDAFKREHLAEVTLSVKAD :: 0.6
variant CD80 IgV-Fc E35D/N48K (Fc fusion) VIHVTKEVKEVATLSCGHNVSVEELAQTRIYWQKDKKMVLTMMSGDMKIWPEYKNRTIFDITNNLSIVILALRPSDEGTYECVVLKYEKDAFKREHLAEVTLSVKAD :: 1
variant CD80 IgV-Fc D46V/L85Q (Fc fusion) VIHVTKEVKEVATLSCGHNVSVEELAQTRIYWQKEKKMVLTMMSGVMNIWPEYKNRTIFDITNNLSIVILALRPSDEGTYECVVQKYEKDAFKREHLAEVTLSVKAD :: 1
variant CD80 IgV-Fc E35D/M47L/V68M (Fc fusion) VIHVTKEVKEVATLSCGHNVSVEELAQTRIYWQKDKKMVLTMMSGDLNIWPEYKNRTIFDITNNLSIMILALRPSDEGTYECVVLKYEKDAFKREHLAEVTLSVKAD :: 0.7
variant CD80 IgV-Fc M47V/N48K/V68M (Fc fusion) VIHVTKEVKEVATLSCGHNVSVEELAQTRIYWQKEKKMVLTMMSGDVKIWPEYKNRTIFDITNNLSIMILALRPSDEGTYECVVLKYEKDAFKREHLAEVTLSVKAD :: 0.9
variant CD80 IgV-Fc E35D/D46V/M47V/V68M/L85Q (Fc fusion) VIHVTKEVKEVATLSCGHNVSVEELAQTRIYWQKDKKMVLTMMSGVVNIWPEYKNRTIFDITNNLSIMILALRPSDEGTYECVVQKYEKDAFKREHLAEVTLSVKAD :: 0.9
variant CD80 IgV-Fc M47V (Fc fusion) VIHVTKEVKEVATLSCGHNVSVEELAQTRIYWQKEKKMVLTMMSGDVNIWPEYKNRTIFDITNNLSIVILALRPSDEGTYECVVLKYEKDAFKREHLAEVTLSVKAD :: 0.8
